All figures here come from patent US5136080A.

Test system: veratrine-evoked release of glutamate from rat brain slices
Test: tissue or blood
Assay type: cell-based
Settings: P95 limits in parentheses
Exam item: assign Fulfilled to entries whose IC50 is below 3000 nM and Not fulfilled to entries at or above 3000 nM. Note that a value of exactly 3000 nM receives Not fulfilled.

1) Cc1nc(N)nc(N)c1-c1ccccc1Cl [Example 22] : Fulfilled
2) COCc1nc(N)nc(N)c1-c1cc(Cl)cc(Cl)c1Cl [Example 2] : Fulfilled
3) Cc1nc(N2CCN(C)CC2)nc(N)c1-c1cc(Cl)cc(Cl)c1Cl [Example 11] : Not fulfilled
4) CN1CCN(c2nc(N)c(-c3cc(Cl)cc(Cl)c3Cl)c(C(F)(F)F)n2)CC1 [Example 1] : Fulfilled
5) Nc1nc(N)c(-c2cc(Cl)cc(Cl)c2Cl)c(C(F)(F)F)n1 [Example 4] : Fulfilled
6) CSCc1nc(N)nc(N)c1-c1cccc(Cl)c1Cl [Example 20] : Not fulfilled
7) Nc1nc(N)c(-c2cc(Cl)ccc2Cl)c(C(F)(F)F)n1 [Example 28] : Not fulfilled
8) Cc1nc(N)nc(N)c1-c1cccc(Cl)c1Cl [Example 15] : Fulfilled
9) Nc1ncc(-c2cccc(Cl)c2Cl)c(N)n1 [Example 21] : Not fulfilled
10) Nc1ncc(-c2cc(Cl)cc(Cl)c2Cl)c(N)n1 [Example 29] : Fulfilled
11) CCc1nc(N)nc(N)c1-c1ccccc1Cl [Example 24] : Fulfilled
12) Nc1nc(N)c(-c2cccc(Cl)c2Cl)c(COc2ccccc2)n1 [Example 19] : Fulfilled
13) COCc1nc(N)nc(N)c1-c1cccc(Cl)c1Cl [Example 16] : Not fulfilled
14) Cc1nc(N)nc(N)c1-c1cc(Cl)cc(Cl)c1Cl [Example 6] : Fulfilled

----------
Parameter IC50: see the listing below.
Tested on: veratrine-evoked release of glutamate from rat brain slices
Experiment: tissue or blood
Type: cell-based
Conditions: P95 limits in parentheses
measure_name: IC50

1) CN(C)c1ncc(-c2cc(Cl)cc(Cl)c2Cl)c(N)n1 : < 10 µM
2) Cc1nc(N(C)C)nc(N)c1-c1cc(Cl)cc(Cl)c1Cl : < 10 µM
3) Nc1nc(N2CCOCC2)nc(C(F)(F)F)c1-c1cc(Cl)cc(Cl)c1Cl : < 10 µM
4) Nc1ncc(-c2ccccc2Cl)c(N)n1 : 8.7 µM
5) Nc1nc(N)c(-c2ccc(Cl)cc2Cl)c(C(F)(F)F)n1 : 4.1 µM
6) Nc1ncc(-c2cc(Cl)c([N+](=O)[O-])c(Cl)c2Cl)c(N)n1 : 3.5 µM
7) Nc1nc(N)c(-c2ccc(Cl)cc2Cl)c(COCc2ccccc2)n1 : ~3 µM
8) Nc1nc(N)c(-c2cccc(Cl)c2Cl)c(C(F)(F)F)n1 : 3.1 µM
9) Nc1ncc(-c2cccc3ccccc23)c(N)n1 : 2.4 µM

----------
Target: UniProt:Q920D2
Sequence (Q920D2 1-187): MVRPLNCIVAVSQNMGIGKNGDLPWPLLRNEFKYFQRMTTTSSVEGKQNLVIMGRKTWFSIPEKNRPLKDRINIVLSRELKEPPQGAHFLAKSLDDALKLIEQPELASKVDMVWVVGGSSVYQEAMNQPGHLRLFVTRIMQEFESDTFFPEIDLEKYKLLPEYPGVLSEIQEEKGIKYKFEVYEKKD
pIC50: −log10 of the molar value.
measure_name: pIC50

1) Nc1nc(N)c(-c2cc(Cl)ccc2Cl)c(C(F)(F)F)n1 [Example 28] : 4.34
2) Cc1nc(N)nc(N)c1-c1ccccc1Cl [Example 22] : 4.62
3) Cc1nc(N)nc(N)c1-c1cccc(Cl)c1Cl [Example 15] : 5.06
4) Cc1nc(N)nc(N)c1-c1cc(Cl)cc(Cl)c1Cl [Example 6] : 6.29
5) CSCc1nc(N)nc(N)c1-c1cccc(Cl)c1Cl [Example 20] : 4.76
6) Nc1ncc(-c2cc(Cl)cc(Cl)c2Cl)c(N)n1 [Example 29] : 6.28
7) Nc1ncc(-c2cccc3ccccc23)c(N)n1 [Example 17, 2,4-Diamino-5-(1-naphthyl)pyrimidine] : 5.31
8) Nc1ncc(-c2ccccc2Cl)c(N)n1 [Example 23, 2,4-Diamino-5-(2-chlorophenyl)pyrimidine] : 4.68
